# target.entity: NMDA receptor (NR1 subunit and NR2B subunit) (Mus musculus, UniProt P35438+Q01097)
# Construct: expressed in transfected cells; host or cells: HEK293 cells, transient transfection with pcDNA3.1 plasmids
# Sequence (Q01097 27-1482, other chains not shown): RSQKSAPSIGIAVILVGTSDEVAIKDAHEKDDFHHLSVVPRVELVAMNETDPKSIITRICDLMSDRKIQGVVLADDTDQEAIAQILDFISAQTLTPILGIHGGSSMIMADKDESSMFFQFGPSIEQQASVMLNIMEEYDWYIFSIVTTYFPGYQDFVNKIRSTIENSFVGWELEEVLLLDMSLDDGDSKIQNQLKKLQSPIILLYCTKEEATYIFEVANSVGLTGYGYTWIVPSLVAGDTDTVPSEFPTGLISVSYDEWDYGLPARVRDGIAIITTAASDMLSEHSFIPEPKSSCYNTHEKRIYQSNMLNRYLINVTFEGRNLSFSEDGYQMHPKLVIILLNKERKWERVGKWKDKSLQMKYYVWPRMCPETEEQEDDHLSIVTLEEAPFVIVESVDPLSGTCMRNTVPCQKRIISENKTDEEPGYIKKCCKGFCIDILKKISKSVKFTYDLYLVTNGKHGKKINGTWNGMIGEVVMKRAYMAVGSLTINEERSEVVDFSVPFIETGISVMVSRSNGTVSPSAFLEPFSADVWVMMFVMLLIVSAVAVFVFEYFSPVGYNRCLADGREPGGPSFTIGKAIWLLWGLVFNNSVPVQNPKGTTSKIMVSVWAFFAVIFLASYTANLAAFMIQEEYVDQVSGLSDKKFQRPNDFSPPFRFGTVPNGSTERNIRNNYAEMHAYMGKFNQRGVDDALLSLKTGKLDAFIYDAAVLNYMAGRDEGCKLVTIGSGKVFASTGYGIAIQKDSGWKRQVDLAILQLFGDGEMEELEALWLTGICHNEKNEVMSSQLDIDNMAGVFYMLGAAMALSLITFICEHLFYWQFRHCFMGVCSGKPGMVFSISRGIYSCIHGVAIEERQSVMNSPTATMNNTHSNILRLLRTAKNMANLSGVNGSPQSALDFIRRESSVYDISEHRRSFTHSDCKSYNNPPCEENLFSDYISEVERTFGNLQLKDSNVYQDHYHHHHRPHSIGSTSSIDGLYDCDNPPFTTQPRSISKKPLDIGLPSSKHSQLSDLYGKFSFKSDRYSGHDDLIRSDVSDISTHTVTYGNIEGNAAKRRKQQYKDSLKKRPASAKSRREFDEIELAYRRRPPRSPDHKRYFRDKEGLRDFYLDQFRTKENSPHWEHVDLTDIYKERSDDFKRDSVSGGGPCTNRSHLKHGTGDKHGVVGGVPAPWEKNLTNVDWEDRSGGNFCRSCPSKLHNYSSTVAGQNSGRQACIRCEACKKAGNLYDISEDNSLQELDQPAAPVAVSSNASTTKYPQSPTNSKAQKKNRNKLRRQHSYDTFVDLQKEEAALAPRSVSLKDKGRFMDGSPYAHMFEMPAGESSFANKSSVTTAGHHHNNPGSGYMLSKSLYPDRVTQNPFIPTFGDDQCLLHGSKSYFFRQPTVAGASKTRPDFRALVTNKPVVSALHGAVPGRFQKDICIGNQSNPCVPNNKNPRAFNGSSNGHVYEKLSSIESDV
# method: Measurement of expression of NMDA receptor and Ca ion influx amount (glutamic acid/glycine-induced, HEK293 cell co-expressing NR1 and NR2B subunits, Fluo-3/AM)
# Assay type: cell-based
# cond: Ca ion influx induced with 20 μM glutamic acid/2 μM glycine, HEK293 cell with mouse NR1/NR2B; read-out: Ca2+ IC50
Listed next: entries and their corresponding pIC50.
Scale for pIC50: -log10 of concentration given in mol/L; no unit attached.

Illustrative cases are given below, each with its answer.
{"columns": ["compound", "readout.kind", "test.result"],
 "data": [
  ["O=C(Nc1ccc2[nH]c(=O)oc2c1)C(F)=C1CCN(c2ccc(C(F)(F)F)cc2)CC1 [Compound I-42]", "pIC50", 7.89],
  ["O=C(Nc1ccc2[nH]c(=O)oc2c1)C(=O)C1CCN(c2ccc(C(F)(F)F)cc2)CC1 [Compound I-26]", "pIC50", 7.32],
  ["O=C(CC1CCN(c2ccc(C(F)(F)F)cc2)CC1)Nc1ccc2[nH]c(=O)oc2c1 [Compound I-8]", "pIC50", 7.32],
  ["O=C(CC1CCN(c2ccc(C(F)(F)F)cn2)CC1)Nc1ccc2[nH]c(=O)oc2c1 [Compound I-62]", "pIC50", 7.04],
  ["O=C(C=C1CCN(c2ccc(C(F)(F)F)c(F)c2)CC1)Nc1ccc2[nH]c(=O)oc2c1 [Compound I-180]", "pIC50", 7.89],
  ["O=C(NCCC1CCN(c2ccc(Cl)c(Cl)c2)CC1)c1ccc(=O)[nH]c1 [Compound I-196]", "pIC50", 7.82],
  ["O=C(Nc1ccc2[nH]c(=O)oc2c1)C(=O)N1CCN(c2ccc(C(F)(F)F)cc2)CC1 [Compound I-55]", "pIC50", 8.15]
]}

Let's switch to this compound now.
Field request: pIC50 | item: O=C(Nc1ccc2[nH]c(=O)oc2c1)NC1CCN(c2ccc(C(F)(F)F)cc2)CC1 [Compound I-23]
7.60
